Structures can show the parent of a compound that is named as a salt.
The following compounds are shown together with reported melting point values.

I would be grateful if you could share the reported melting point for COc1cc2cc3c(Nc4ccc(Sc5nccn5C)c(Cl)c4)c(C#N)cnc3cc2cc1OCCCl [Example 148] .
275 to 280 °C

Queued: COc1cc(Nc2c(C#N)cnc3cc4cc(OC)c(OCCN5CCC(O)CC5)cc4cc23)c(Cl)cc1Cl
150 to 160 °C

Queued: COc1cc2cc3c(Nc4ccc(Cl)cc4Cl)c(C#N)cnc3nc2cc1OC [Example 177]
266 to 270 °C (dec.)

Queued: COc1cc2cc3c(Nc4ccc(Sc5nccn5C)c(Cl)c4)c(C#N)cnc3cc2cc1OCCN1CCN(C)CC1 [Example 152]
184 to 186 °C

Queued: N#Cc1cnc2c(sc3ccc(N)cc32)c1Nc1cccc(Br)c1 [Example 92]
295 to 300 °C (dec.)

***
I would be grateful if you could share the reported melting point for Cc1ccc(Nc2c(C#N)cnc3c2C=C2N=CN=C2C3)cc1O [Example 41] .
257 to 260 °C (dec.)

Queued: COc1cc(Nc2c(C#N)cnc3cc4c(cc23)ncn4CCN2CCOCC2)c(C)cc1Cl [Example 57]
246 to 248 °C

Queued: COc1cc2cc3ncc(C#N)c(Nc4ccc(F)c(Cl)c4)c3cc2cc1OC (as salt: salt) [Example 13]
> 280 °C

----------
The following molecules are shown together with reported melting point values.

Reference set (8 entries):
I would be grateful if you could share the reported melting point for N#Cc1cnc2c(sc3ccccc32)c1Nc1cccc(Br)c1 [Example 65] .
240 to 242 °C

Queued: COc1cc2cc3ncc(C#N)c(Nc4ccc(Cl)cc4Cl)c3cc2cc1OCCN1CCOCC1
115 to 119 °C (dec.)

Queued: N#Cc1cnc2cc3ccccc3cc2c1Nc1ccc(F)c(Cl)c1 [Example 4]
257 to 259 °C

Queued: N#Cc1cnc2c(c1Nc1ccc(Oc3ccccc3)cc1)C=C1N=C(N)N=C1C2 [Example 34]
> 300 °C

Queued: Cc1ccc(Nc2c(C#N)cnc3c2sc2ccccc23)cc1O [Example 70]
260 °C (dec.)

Queued: N#Cc1cnc2cc3ccc(O)cc3cc2c1Nc1ccc(Cl)cc1Cl [Example 105]
> 300 °C

Queued: COc1cc2cc3ncc(C#N)c(Nc4cc(OC)c(OC)c(OC)c4)c3cc2cc1OCCN1CCN(C)CC1
115 to 120 °C (dec.)

Queued: COc1ccc2cc3c(Nc4ccc(Cl)cc4Cl)c(C#N)cnc3cc2c1 [Example 104]
> 260 °C

***
I would be grateful if you could share the reported melting point for COc1cc(Nc2c(C#N)cnc3cc4cc(OCCCl)c(OC)cc4cc23)c(Cl)cc1C [Example 182] .
222 to 236 °C

----------
# SUBJECT_OF_TEST: Rat2 fibroblasts transformed with v-Src/Hu c-Src fusion gene (Homo sapiens, UniProt P12931, cells depend on it, form not given)
# Construct: fused on or other part: The v-Src frame of Rous sarcoma virus: everything outside the catalytic domain, namely the N-terminal unique/SH3/SH2 part; Candidates are Prague C (P00526), then Schmidt-Ruppin A (P00524)
# Sequence (P12931 whole entry, change not shown, the tested form may be a part): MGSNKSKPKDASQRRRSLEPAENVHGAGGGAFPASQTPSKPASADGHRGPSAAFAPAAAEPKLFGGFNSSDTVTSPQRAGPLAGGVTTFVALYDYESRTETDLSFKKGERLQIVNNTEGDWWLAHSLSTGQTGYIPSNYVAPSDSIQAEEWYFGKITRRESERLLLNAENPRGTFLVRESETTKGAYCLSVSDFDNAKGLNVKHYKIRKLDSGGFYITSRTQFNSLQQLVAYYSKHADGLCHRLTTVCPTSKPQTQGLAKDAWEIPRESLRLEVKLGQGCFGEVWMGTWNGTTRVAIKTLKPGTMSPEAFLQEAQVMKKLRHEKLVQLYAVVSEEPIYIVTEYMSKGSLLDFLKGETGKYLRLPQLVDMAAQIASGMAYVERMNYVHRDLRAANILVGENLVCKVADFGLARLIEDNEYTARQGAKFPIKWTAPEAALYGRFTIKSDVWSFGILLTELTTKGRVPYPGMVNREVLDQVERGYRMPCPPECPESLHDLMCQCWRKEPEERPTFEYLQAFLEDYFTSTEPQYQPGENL
# ASSAY_SUMMARY: Anchorage independent Src-transformed fibroblast proliferation test procedure
# Type: cell-based, rat
# RUN_CONDITIONS: @ dose 10 μM
The following compounds are shown together with reported Src TF prolif % Inh values.
Quick reminder: number only, in %, skip the unit.

Reference set (3 entries):
I would be grateful if you could share the reported Src TF prolif % Inh for N#Cc1cnc2c(c1Nc1ccc(Cl)cc1Br)C=C1N=CN=C1C2 .
0

Queued: COc1ccc(Cl)c(Nc2c(C#N)cnc3c2C=C2N=CN=C2C3)c1
0

Queued: COc1cc(Nc2c(C#N)cnc3cc4c(cc23)ncn4CCN2CCOCC2)c(C)cc1Cl
0

***
I would be grateful if you could share the reported Src TF prolif % Inh for COc1cc(Nc2c(C#N)cnc3c2C=C2N=CN=C2C3)c(Br)cc1Cl .
25

----------
MEASURED_PARAMETER: melting point

Reference set (6 entries):
I would be grateful if you could share the reported melting point for C=CC(=O)Nc1ccc2sc3c(Nc4cccc(Br)c4)c(C#N)cnc3c2c1 .
> 300 °C (dec.)

Queued: COc1cc(Nc2c(C#N)cnc3nc4cc(OCCN5CCOCC5)c(OC)cc4cc23)c(Cl)cc1Cl
242 to 244 °C (dec.)

Queued: N#Cc1cnc2c(sc3ccc([N+](=O)[O-])cc32)c1Nc1ccc(Cl)cc1Cl
210 to 213 °C

Queued: N#Cc1cnc2c(sc3c(N)cccc32)c1Nc1cccc(Br)c1
256 to 258 °C

Queued: N#Cc1cnc2cc3ccccc3cc2c1Nc1ccc(Oc2ccccc2)cc1
250 to 251 °C

Queued: COc1cc(Nc2c(C#N)cnc3c2C=C2N=CN=C2C3)c(Br)cc1Cl
257 °C (dec.)

***
I would be grateful if you could share the reported melting point for COc1cc(Nc2c(C#N)cnc3cc4cc(OCCN5CCC(O)CC5)c(OC)cc4cc23)c(Cl)cc1Cl .
193 to 198 °C

Queued: COc1cc2cc3ncc(C#N)c(Nc4ccc(OCc5ccccc5)c(Cl)c4)c3cc2cc1OCCCl
182 to 185 °C

----------
The following compounds are shown together with reported melting point values.

Reference set (7 entries):
I would be grateful if you could share the reported melting point for COc1cc(Nc2c(C#N)cnc3cc4cc(OC)c(OCCN5CCOCC5)cc4cc23)c(Cl)cc1C .
240 to 241 °C

Queued: COc1cc(Nc2c(C#N)cnc3cc4cc(OCCN5CCOCC5)c(OC)cc4cc23)c(Cl)cc1F
206 to 222 °C

Queued: COc1cc2cc3c(Nc4ccc(Sc5nccn5C)c(Cl)c4)c(C#N)cnc3cc2cc1OCCCN1CCOCC1
230 to 235 °C

Queued: COc1cc2cc3c(Nc4ccc(Sc5nccn5C)c(Cl)c4)c(C#N)cnc3nc2cc1OCCN1CCOCC1
160 to 162 °C (dec.)

Queued: Cc1ccc(Nc2c(C#N)cnc3c2oc2ccccc23)cc1O
240 °C (dec.)

Queued: COc1ccc(C)c(Nc2c(C#N)cnc3c2C=C2N=C(NCCN4CCOCC4)N=C2C3)c1
148 to 150 °C

Queued: COc1cc(Nc2c(C#N)cnc3c2sc2ccc(N)cc23)c(C)cc1Cl
266 to 268 °C (dec.)

--- query ---
I would be grateful if you could share the reported melting point for N#Cc1cnc2c(oc3ccccc32)c1Oc1ccc(Cl)cc1F .
138 to 140 °C

----------
The following molecules are shown together with reported melting point values.

Reference set (4 entries):
I would be grateful if you could share the reported melting point for COc1cc2cc3ncc(C#N)c(Nc4cc(OC)c(OC)c(OC)c4)c3cc2cc1OCCN1CCOCC1 .
135 to 138 °C (dec.)

Queued: COc1cc2cc3ncc(C#N)c(Nc4ccc(F)c(Cl)c4)c3cc2cc1OCCN1CCOCC1
205 to 210 °C

Queued: COc1cc(Nc2c(C#N)cnc3cc4cc(OCCN5CCC(O)CC5)c(OC)cc4cc23)c(Cl)cc1C
210 to 215 °C

Queued: N#Cc1cnc2c(c1Nc1cccc(Br)c1)C=C1N=CN=C1C2
286 to 288 °C

***
I would be grateful if you could share the reported melting point for COc1cc(Nc2c(C#N)cnc3nc4cc(OC)c(OC)cc4cc23)c(Cl)cc1Cl .
297 °C (dec.)

Queued: COc1cc(Nc2c(C#N)cnc3cc4cc(OC)c(OCCN5CCOCC5)cc4cc23)c(Cl)cc1F
204 to 214 °C

Queued: N#Cc1cnc2c(c1Nc1ccc(Oc3ccccc3)cc1)C=C1N=CN=C1C2
> 270 °C

Queued: COc1cc(Nc2c(C#N)cnc3cc4cc(OCCn5ccnn5)c(OC)cc4cc23)c(Cl)cc1Cl
245 °C (dec.)

----------
Counter-ions that a name gives are not always drawn.
MEASURED_PARAMETER: melting point

Reference set (5 entries):
I would be grateful if you could share the reported melting point for COc1cc2cc3c(Nc4ccc(F)c(Cl)c4)c(C#N)cnc3cc2cc1OCCN1CCOCC1 .
237 to 242 °C

Queued: COc1ccc2cc3ncc(C#N)c(Nc4ccc(Cl)cc4Cl)c3cc2c1
215 to 217 °C

Queued: CN(C)CCOc1ccc2cc3ncc(C#N)c(Nc4ccc(Cl)cc4Cl)c3cc2c1
115 to 117 °C

Queued: COc1cc2cc3c(Nc4cc(OC)c(Cl)cc4Cl)c(C#N)cnc3cc2cc1O
238 to 240 °C

Queued: COc1cc2cc3c(Nc4ccc(Sc5nccn5C)c(Cl)c4)c(C#N)cnc3cc2cc1OCCCCl
> 300 °C

***
I would be grateful if you could share the reported melting point for N#Cc1cnc2c(oc3ccccc32)c1Nc1ccc(Cl)cc1F .
259 to 261 °C

Queued: CCOc1cc2cc3c(Nc4cc(OC)c(Cl)cc4C)c(C#N)cnc3cc2cc1OCCN(CC(N)=O)CC(N)=O
168 to 170 °C

Queued: CCOC(=O)CN(CCOc1cc2cc3c(Nc4cc(OC)c(Cl)cc4C)c(C#N)cnc3cc2cc1OCC)CC(=O)OCC
70 to 71 °C

Queued: COc1cc2cc3c(Nc4ccc(Sc5nccn5C)c(Cl)c4)c(C#N)cnc3cc2cc1OCCn1ccnn1
201 to 207 °C

Queued: N#Cc1cnc2c(sc3ccccc32)c1Nc1ccc(Cl)cc1F
250 to 251 °C

Queued: COc1cc2cc3c(Nc4ccc(F)c(Cl)c4)c(C#N)cnc3cc2cc1OCCCl
137 to 159 °C

Queued: COc1cc(Nc2c(C#N)cnc3cc4cc(OCCCl)c(OC)cc4cc23)c(Cl)cc1Cl
239 to 255 °C (dec.)

Queued: CCOC(=O)CN(CCOc1cc2cc3ncc(C#N)c(Nc4cc(OC)c(Cl)cc4C)c3cc2cc1OCC)CC(=O)OCC
85 to 86 °C

Queued: COc1cc(Nc2c(C#N)cnc3c2C=C2N=CN=C2C3)cc(OC)c1OC
> 260 °C

Queued: COc1cc2cc3c(Nc4cc(OC)c(OC)c(OC)c4)c(C#N)cnc3nc2cc1OC
250 to 252 °C (dec.)

Queued: COc1cc(Nc2c(C#N)cnc3cc4cc(OCCCN5CCOCC5)c(OC)cc4cc23)c(Cl)cc1Cl
205 to 208 °C

Queued: COc1cc2cc3ncc(C#N)c(Nc4ccc(Oc5ccccc5)c(Cl)c4)c3cc2cc1OCCN1CCOCC1
251 to 253 °C

Queued: COc1cc(Nc2c(C#N)cnc3cc4cc(OCCN5CCOCC5)c(OC)cc4cc23)c(Cl)cc1C
220 to 222 °C

Queued: COc1cc(Nc2c(C#N)cnc3cc4cc(OC)c(OCCN5CCC(O)CC5)cc4cc23)c(Cl)cc1C
205 to 235 °C

Queued: CCOc1cc2cc3ncc(C#N)c(Nc4cc(OC)c(Cl)cc4C)c3cc2cc1OCCN1CCOCC1
195 to 196 °C

Queued: COc1cc(Nc2c(C#N)cnc3cc4cc(OC)c(OC)cc4cc23)c(C)cc1Cl
171 to 173 °C

Queued: COc1cc2cc3ncc(C#N)c(Nc4ccc(Oc5ccccc5)cc4)c3cc2cc1OC (as salt: salt)
> 265 °C
